biological target: HDAC8 (Homo sapiens); assay: HDAC inhibition assay, HDAC8
Sequence (Q9BY41 whole entry): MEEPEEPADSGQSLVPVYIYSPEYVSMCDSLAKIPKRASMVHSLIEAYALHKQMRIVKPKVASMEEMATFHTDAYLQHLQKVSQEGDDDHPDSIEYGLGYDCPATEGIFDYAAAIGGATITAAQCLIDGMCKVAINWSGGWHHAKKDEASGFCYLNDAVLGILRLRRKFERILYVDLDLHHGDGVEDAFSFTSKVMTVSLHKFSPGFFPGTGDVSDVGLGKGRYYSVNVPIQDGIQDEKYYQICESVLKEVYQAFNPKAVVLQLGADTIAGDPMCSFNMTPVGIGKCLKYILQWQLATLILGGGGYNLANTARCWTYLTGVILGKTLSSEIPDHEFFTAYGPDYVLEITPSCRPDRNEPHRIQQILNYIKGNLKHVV
experimentalEndpoint: IC50 (µM)
Unit µM implied. Number only.

Could you tell me which IC50 is on file for NC(=NO)c1ccc2c(c1)N(Cc1ccc(C(=O)NO)c(-c3ccccc3)c1)c1ccccc1S2 [Compound 7g] ?
1.95

----------
Biological target: HDAC6 (Homo sapiens, UniProt Q9UBN7)
Sequence (Q9UBN7 1-1215): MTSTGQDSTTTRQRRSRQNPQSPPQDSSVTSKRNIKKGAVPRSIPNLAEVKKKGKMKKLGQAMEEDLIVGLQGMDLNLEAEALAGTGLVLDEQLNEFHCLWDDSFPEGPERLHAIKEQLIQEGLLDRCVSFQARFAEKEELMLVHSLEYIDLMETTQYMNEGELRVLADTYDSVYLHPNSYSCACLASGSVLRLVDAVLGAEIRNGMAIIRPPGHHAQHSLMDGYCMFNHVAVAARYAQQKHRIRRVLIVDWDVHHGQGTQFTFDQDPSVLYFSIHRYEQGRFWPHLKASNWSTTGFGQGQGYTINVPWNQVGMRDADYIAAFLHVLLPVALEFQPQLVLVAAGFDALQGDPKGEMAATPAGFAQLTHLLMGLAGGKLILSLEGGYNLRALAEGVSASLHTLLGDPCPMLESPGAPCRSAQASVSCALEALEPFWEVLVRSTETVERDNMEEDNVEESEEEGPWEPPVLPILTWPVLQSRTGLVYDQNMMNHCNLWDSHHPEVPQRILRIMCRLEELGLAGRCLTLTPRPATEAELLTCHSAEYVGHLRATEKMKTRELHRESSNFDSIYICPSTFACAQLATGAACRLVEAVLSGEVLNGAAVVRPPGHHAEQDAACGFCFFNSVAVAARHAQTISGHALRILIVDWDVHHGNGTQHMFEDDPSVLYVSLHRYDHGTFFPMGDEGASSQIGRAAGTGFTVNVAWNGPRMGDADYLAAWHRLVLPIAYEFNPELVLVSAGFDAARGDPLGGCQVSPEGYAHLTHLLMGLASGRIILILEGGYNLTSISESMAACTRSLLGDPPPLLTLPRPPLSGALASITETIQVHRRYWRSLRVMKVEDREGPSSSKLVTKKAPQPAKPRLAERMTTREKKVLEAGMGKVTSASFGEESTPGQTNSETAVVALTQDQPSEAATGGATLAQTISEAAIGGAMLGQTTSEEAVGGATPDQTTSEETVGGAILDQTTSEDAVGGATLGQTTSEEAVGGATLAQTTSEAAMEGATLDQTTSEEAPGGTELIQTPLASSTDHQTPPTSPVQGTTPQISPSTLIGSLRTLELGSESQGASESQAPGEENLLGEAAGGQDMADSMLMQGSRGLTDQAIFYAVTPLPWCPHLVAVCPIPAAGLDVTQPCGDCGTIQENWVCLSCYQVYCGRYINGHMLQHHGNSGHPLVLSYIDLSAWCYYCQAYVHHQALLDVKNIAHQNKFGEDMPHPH
experimentalEndpoint: IC50 (µM)
Entry rule: numbers only, all in µM.

Entry COc1ccc(-c2cc(CN3c4ccccc4Sc4ccc(C#N)cc43)ccc2C(=O)NO)cc1 [Compound 19b] , system HDAC6 (Homo sapiens, UniProt Q9UBN7): what IC50 was measured?
4.03

Checklist item: IC50 tested on HDAC6 (Homo sapiens, UniProt Q9UBN7), entry O=C(NO)c1ccc(CN2CCCc3ccccc3C2)cc1-c1ccccc1 , value?
18.2

Provide value of IC50 for this record tested with HDAC6 (Homo sapiens, UniProt Q9UBN7): N#Cc1ccc2c(c1)N(Cc1ccc(C(=O)NO)c(-c3ccc(F)cc3)c1)c1ccccc1S2 [Compound 19c]
4.22

Request body: readout IC50, system HDAC6 (Homo sapiens, UniProt Q9UBN7), query COc1cc(-c2cc(CN3c4ccccc4Sc4ccc(C#N)cc43)ccc2C(=O)NO)cc(OC)c1OC [Compound 19a] . Return the value.
7.6

Quick check: IC50 on HDAC6 (Homo sapiens, UniProt Q9UBN7), item O=C(NO)c1ccc(CN2c3ccccc3Sc3ccc(C(F)(F)F)cc32)cc1-c1ccccc1 ?
3.19

For HDAC6 (Homo sapiens, UniProt Q9UBN7), provide IC50 of NC(=O)c1ccc2c(c1)N(Cc1ccc(C(=O)NO)c(-c3ccccc3)c1)c1ccccc1S2 please.
0.75
